# Test protocol: Kinetic solubility in 50 mM phosphate buffer pH 7.4
# Assay type: physicochemical
# Measurement setup: aqueous buffer, kinetic from dmso stock, 50 mM phosphate buffer pH 7.4, 2% DMSO, room temperature
Reported property: log10 solubility kinetic at 24 h (log10 of the value in µg/mL)

COCc1cc(-c2nnc3c4ccccc4c(OCc4ccc(C(=O)N5CC(OC)C5)cn4)nn23)no1
0.77
COCc1cc(-c2nnc3c4ccccc4c(OCc4ccc(C(=O)NC(C)C(F)(F)F)cn4)nn23)no1 (stereo not drawn)
0.75
COCc1cc(-c2nnc3c4ccccc4c(OCc4ccc(C(=O)NCCOC(F)(F)F)cn4)nn23)no1
-0.24
COCc1cc(-c2nnc3c4ccccc4c(OCc4ccc(C(=O)NCCF)cn4)nn23)no1
0.95
COCc1cc(-c2nnc3c4ccccc4c(OCc4ccc(C(=O)N5C[C@@H]6C[C@H]5CO6)cn4)nn23)no1
2.00
COCc1cc(-c2nnc3c4ccccc4c(OCc4ccc(C(=O)N5CCCC5)cn4)nn23)no1
1.50
COCc1cc(-c2nnc3c4ccccc4c(OCc4ccc(C(=O)N5CCCOCC5)cn4)nn23)no1
2.01
COCc1cc(-c2nnc3c4ccccc4c(OCc4ccc(C(=O)NC56CC(C5)C6)cn4)nn23)no1
0.62
COCc1cc(-c2nnc3c4ccccc4c(OCc4ccc(C(=O)NC5CN(C(C)=O)C5)cn4)nn23)no1
1.47
COCc1cc(-c2nnc3c4ccccc4c(OCc4ccc(C(=O)N5CCOC(C)C5)cn4)nn23)no1 (stereo not drawn)
1.99
COCc1cc(-c2nnc3c4ccccc4c(OCc4ccc(C(=O)N(C)C)cn4)nn23)no1
1.96
COCc1cc(-c2nnc3c4ccccc4c(OCc4ccc(C(=O)NC5CC(F)C5)cn4)nn23)no1 (stereo not drawn)
0.07
COCc1cc(-c2nnc3c4ccccc4c(OCc4ccc(C(=O)NCC(F)(F)CO)cn4)nn23)no1
0.43
COCc1cc(-c2nnc3c4ccccc4c(OCc4ccc(C(=O)NC(C)COC)cn4)nn23)no1 (stereo not drawn)
1.28
COCc1cc(-c2nnc3c4ccccc4c(OCc4ccc(C(=O)N(C)CC(F)(F)F)cn4)nn23)no1
0.16
COCc1cc(-c2nnc3c4ccccc4c(OCc4ccc(C(=O)NC5CCC5)cn4)nn23)no1
0.96
COCc1cc(-c2nnc3c4ccccc4c(OCc4ccc(C(=O)NCC5COC5)cn4)nn23)no1
1.03
COCc1cc(-c2nnc3c4ccccc4c(OCc4ccc(C(=O)N5CCN(C)C(=O)C5)cn4)nn23)no1
1.45
Cc1cc(-c2nnc3c4ccccc4c(OCc4ccc(C(=O)N5CCOCC5)cn4)nn23)no1 [drawing 171, reference compound]
0.29
COCc1cc(-c2nnc3c4ccccc4c(OCc4ccc(C(=O)N5CCC(F)(F)C5)cn4)nn23)no1
0.75
COCc1cc(-c2nnc3c4ccccc4c(OCc4ccc(C(=O)N5CCOCC5C)cn4)nn23)no1 (stereo not drawn)
1.99
COCc1cc(-c2nnc3c4ccccc4c(OCc4ccc(C(=O)N5CC(C)OC(C)C5)cn4)nn23)no1 (stereo not drawn)
1.87
COCc1cc(-c2nnc3c4ccccc4c(OCc4ccc(C(=O)NCCO)cn4)nn23)no1
1.69
CCNC(=O)c1ccc(COc2nn3c(-c4cc(COC)on4)nnc3c3ccccc23)nc1
0.90
Cc1cc(-c2nnc3c4ccccc4c(OCc4ccc(C(=O)N5CCC(F)(F)CC5)cn4)nn23)no1 [reference compound]
-0.01
COCc1cc(-c2nnc3c4ccccc4c(OCc4ccc(C(=O)N5CCOCC5)cn4)nn23)no1
1.25
COCc1cc(-c2nnc3c4ccccc4c(OCc4ccc(C(=O)NC5CCOC5)cn4)nn23)no1 (stereo not drawn)
1.31
COCCN(CCOC)C(=O)c1ccc(COc2nn3c(-c4cc(COC)on4)nnc3c3ccccc23)nc1
1.72
COCc1cc(-c2nnc3c4ccccc4c(OCc4ccc(C(=O)NC5(C#N)CC5)cn4)nn23)no1
0.03

---

# Test protocol: Pharmacokinetic experiment on rats, oral
# Type: in vivo
# Measurement setup: rat; male SD rats, po 1 mg/kg, 50% PEG400/50% water, plasma
Reported property: Cmax (ng/mL)

CCNC(=O)c1ccc(COc2nn3c(-c4cc(C)on4)nnc3c3ccccc23)nc1 [drawing 173, reference compound]
19
Cc1cc(-c2nnc3c4ccccc4c(OCc4ccc(C(=O)N5CCOCC5)cn4)nn23)no1 [drawing 175, reference compound]
22.4
CCNC(=O)c1ccc(COc2nn3c(-c4cc(COC)on4)nnc3c3ccccc23)nc1 [drawing 172]
24.7
COCc1cc(-c2nnc3c4ccccc4c(OCc4ccc(C(=O)N5CCOCC5)cn4)nn23)no1 [drawing 174]
48

---

# Test protocol: Kinetic solubility in 50 mM phosphate buffer pH 7.4
# Type: physicochemical
# Measurement setup: aqueous buffer, kinetic from dmso stock, 50 mM phosphate buffer pH 7.4, 2% DMSO, room temperature
Reported property: solubility kinetic at 24 h (µg/mL)

Cc1cc(-c2nnc3c4ccccc4c(OCc4ccc(C(=O)NC5CCOCC5)cn4)nn23)no1 [reference compound]
3.88
COCc1cc(-c2nnc3c4ccccc4c(OCc4ccc(C(=O)N(C)C5CC5)cn4)nn23)no1 [Compound 50]
3.75
COCc1cc(-c2nnc3c4ccccc4c(OCc4ccc(C(=O)N[C@@H](C)COC)cn4)nn23)no1 [Compound 05]
25.6
COCc1cc(-c2nnc3c4ccccc4c(OCc4ccc(C(=O)NC5CCOCC5)cn4)nn23)no1 [Compound 04]
13.1
COCCNC(=O)c1ccc(COc2nn3c(-c4cc(COC)on4)nnc3c3ccccc23)nc1 [Compound 07]
23.2
COCc1cc(-c2nnc3c4ccccc4c(OCc4ccc(C(=O)NC(C)(C)COC)cn4)nn23)no1 [Compound 14]
35.7
COCc1cc(-c2nnc3c4ccccc4c(OCc4ccc(C(=O)NCCC#N)cn4)nn23)no1 [Compound 28]
3.68
COCc1cc(-c2nnc3c4ccccc4c(OCc4ccc(C(=O)N5CCC6(CC5)COC6)cn4)nn23)no1 [Compound 56]
12.5

---

# Test system: α5-GABAA receptor (Homo sapiens, UniProt P18507+P31644)
# Construct: expressed in transfected cells; host or cells: HEK-293 (monoclonal, stably transfected)
# Sequence (P31644 32-462): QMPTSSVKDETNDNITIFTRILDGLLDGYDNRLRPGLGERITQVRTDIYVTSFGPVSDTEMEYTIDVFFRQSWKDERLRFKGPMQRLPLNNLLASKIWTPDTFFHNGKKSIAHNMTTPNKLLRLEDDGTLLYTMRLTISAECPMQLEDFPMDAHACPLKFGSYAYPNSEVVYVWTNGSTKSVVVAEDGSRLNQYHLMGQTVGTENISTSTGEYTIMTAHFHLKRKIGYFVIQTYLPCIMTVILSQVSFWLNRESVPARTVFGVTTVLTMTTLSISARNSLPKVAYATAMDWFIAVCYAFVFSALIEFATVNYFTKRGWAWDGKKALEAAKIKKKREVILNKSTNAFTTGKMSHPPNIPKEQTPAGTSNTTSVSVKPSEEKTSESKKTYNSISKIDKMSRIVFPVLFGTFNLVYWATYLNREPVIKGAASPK
# Sequence (P28472 26-473 partner): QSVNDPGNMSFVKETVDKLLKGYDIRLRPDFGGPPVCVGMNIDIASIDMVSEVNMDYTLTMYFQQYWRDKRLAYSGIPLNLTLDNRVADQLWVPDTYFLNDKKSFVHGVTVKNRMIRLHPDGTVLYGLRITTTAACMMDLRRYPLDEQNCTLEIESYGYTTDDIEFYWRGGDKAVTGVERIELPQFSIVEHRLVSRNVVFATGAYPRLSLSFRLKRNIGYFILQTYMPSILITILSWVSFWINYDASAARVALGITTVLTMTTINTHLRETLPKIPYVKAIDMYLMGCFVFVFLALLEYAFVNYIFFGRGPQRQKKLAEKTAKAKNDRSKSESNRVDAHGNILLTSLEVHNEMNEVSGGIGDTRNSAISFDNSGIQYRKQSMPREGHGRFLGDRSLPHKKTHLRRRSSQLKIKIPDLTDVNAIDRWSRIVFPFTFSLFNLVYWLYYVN
# Sequence (P18507 40-467 isoform P18507-1 limits assumed): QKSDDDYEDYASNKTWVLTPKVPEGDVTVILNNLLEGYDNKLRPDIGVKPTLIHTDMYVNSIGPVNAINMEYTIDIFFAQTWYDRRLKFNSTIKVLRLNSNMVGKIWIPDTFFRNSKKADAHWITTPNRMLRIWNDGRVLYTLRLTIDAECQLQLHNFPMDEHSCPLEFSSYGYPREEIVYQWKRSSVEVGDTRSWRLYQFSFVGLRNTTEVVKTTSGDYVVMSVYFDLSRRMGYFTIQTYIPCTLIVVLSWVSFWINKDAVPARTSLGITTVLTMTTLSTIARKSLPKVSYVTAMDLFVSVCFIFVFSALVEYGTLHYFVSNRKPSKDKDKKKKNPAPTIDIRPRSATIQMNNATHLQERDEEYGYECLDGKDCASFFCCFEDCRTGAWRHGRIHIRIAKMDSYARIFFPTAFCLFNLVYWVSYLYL
# Test protocol: Whole cell patch clamp, inverse agonism efficacy on GABA-induced current in HEK-293 cells expressing α5-GABAA receptor
# Type: cell-based
# Measurement setup: HEK293; compound 100 nM, GABA 0.05 μM; ratio to reference compound Example 7 in CN106854207A in the same batch
Reported property: Emax at 0.1 µM

COCc1cc(-c2nnc3c4ccccc4c(OCc4ccc(C(=O)N5CCOC(C)C5)cn4)nn23)no1 (centres unmarked)
77.5%
COCc1cc(-c2nnc3c4ccccc4c(OCc4ccc(C(=O)NCCC#N)cn4)nn23)no1
133%
COCc1cc(-c2nnc3c4ccccc4c(OCc4ccc(C(=O)N5C[C@@H]6C[C@H]5CO6)cn4)nn23)no1
86.9%
COCc1cc(-c2nnc3c4ccccc4c(OCc4ccc(C(=O)N5CCOCC5C)cn4)nn23)no1 (centres unmarked)
72.5%
COCc1cc(-c2nnc3c4ccccc4c(OCc4ccc(C(=O)N5CCC(O)CC5)cn4)nn23)no1
88.4%
COCCNC(=O)c1ccc(COc2nn3c(-c4cc(COC)on4)nnc3c3ccccc23)nc1
108%
COCc1cc(-c2nnc3c4ccccc4c(OCc4ccc(C(=O)NCC5COC5)cn4)nn23)no1
115%
COCc1cc(-c2nnc3c4ccccc4c(OCc4ccc(C(=O)NC(C)C)cn4)nn23)no1
106%

---

Known solubility kinetic at 24 h of a selection of molecules
# Test protocol: Kinetic solubility in 50 mM phosphate buffer pH 7.4
# Type: physicochemical
# Measurement setup: aqueous buffer, kinetic from dmso stock, 50 mM phosphate buffer pH 7.4, 2% DMSO, room temperature
Reported property: solubility kinetic at 24 h (µg/mL)

COCc1cc(-c2nnc3c4ccccc4c(OCc4ccc(C(=O)N[C@H](C)COC)cn4)nn23)no1
27.7
COCc1cc(-c2nnc3c4ccccc4c(OCc4ccc(C(=O)NC(C)C)cn4)nn23)no1
9.23
COCc1cc(-c2nnc3c4ccccc4c(OCc4ccc(C(=O)N5CC6(COC6)C5)cn4)nn23)no1
48.5
COCc1cc(-c2nnc3c4ccccc4c(OCc4ccc(C(=O)N5CCC(OC)CC5)cn4)nn23)no1
26.5
Cc1cc(-c2nnc3c4ccccc4c(OCc4ccc(C(=O)NC5CC5)cn4)nn23)no1 [reference compound]
2.16
COCc1cc(-c2nnc3c4ccccc4c(OCc4ccc(C(N)=O)cn4)nn23)no1
0.8
COCc1cc(-c2nnc3c4ccccc4c(OCc4ccc(C(=O)NCC(F)F)cn4)nn23)no1
1.39
COCc1cc(-c2nnc3c4ccccc4c(OCc4ccc(C(=O)N5CCC(O)CC5)cn4)nn23)no1
6.93
COCc1cc(-c2nnc3c4ccccc4c(OCc4ccc(C(=O)NC[C@@H]5CCCO5)cn4)nn23)no1
13.6
COCc1cc(-c2nnc3c4ccccc4c(OCc4ccc(C(=O)NCC(F)(F)F)cn4)nn23)no1
0.77
COCc1cc(-c2nnc3c4ccccc4c(OCc4ccc(C(=O)N(C)CC5CC5)cn4)nn23)no1
31.9
COCCNC(=O)c1ccc(COc2nn3c(-c4cc(C)on4)nnc3c3ccccc23)nc1 [reference compound]
0.92
COCc1cc(-c2nnc3c4ccccc4c(OCc4ccc(C(=O)NCC5(C)COC5)cn4)nn23)no1
10.1
CCNC(=O)c1ccc(COc2nn3c(-c4cc(C)on4)nnc3c3ccccc23)nc1 [drawing 164, reference compound]
0.62
COCc1cc(-c2nnc3c4ccccc4c(OCc4ccc(C(=O)N5CCC(F)(F)CC5)cn4)nn23)no1
4.6
